Measured Ex values are reported for all entries that follow.
# Assay overview: Fluorescence excitation and emission spectrum of the dyes
# Format: physicochemical
# Condition parameters: in Methanol
Report the figure in nm without appending any unit label.

Examples with their reported Ex follow.
[[record]]
molecule = "Cc1ccc(CN2/C(=C/C=C/C3=[N+](Cc4ccc(C)cc4)c4ccccc4C3(C)C)C(C)(C)c3ccccc32)cc1.[Br-] [Compound No. 18]"
obs_value = 551

[[record]]
molecule = "CC(C(=O)O)c1ccc(C[N+]2=C(/C=C/C=C3\\Oc4ccccc4N3Cc3ccc(CC(=O)O)cc3)C(C)(C)c3cc(S(=O)(=O)[O-])ccc32)cc1 (stereo not drawn) [Compound No. 11]"
obs_value = 510


# ---- query molecule ----
Request: Looking for the measured Ex of CC(C(=O)ON1C(=O)CCC1=O)c1ccc(C[N+]2=C(/C=C/C=C3\Oc4ccccc4N3Cc3ccc(CC(=O)ON4C(=O)CCC4=O)cc3)C(C)(C)c3cc(S(=O)(=O)[O-])ccc32)cc1 (stereo not drawn) [Compound No. 12] , can you help?
Result: 510

----------
Here the recorded Em is given for each entry.
# Assay overview: Fluorescence excitation and emission spectrum of the dyes
# Assay type: physicochemical
# Condition parameters: in Methanol
Express your answer in nm, writing the number without its unit.

Worked examples follow.
[[record]]
compound = "Cc1ccc(CN2/C(=C/C=C/C3=[N+](Cc4ccc(C)cc4)c4ccccc4C3(C)C)C(C)(C)c3ccccc32)cc1.[Br-]"
unit_abbrev = "nm"
obs_value = 574

[[record]]
compound = "O=C(Cc1ccc(CN2/C(=C/C=C/c3oc4ccccc4[n+]3Cc3ccc(CC(=O)ON4C(=O)CCC4=O)cc3)Oc3ccccc32)cc1)ON1C(=O)CCC1=O.[Br-]"
unit_abbrev = "nm"
obs_value = 508

[[record]]
compound = "CC1(C)C(/C=C/C=C/C=C2\\Oc3ccccc3N2Cc2ccc(CC(=O)ON3C(=O)CCC3=O)cc2)=[N+](Cc2ccc(CC(=O)ON3C(=O)CCC3=O)cc2)c2ccc(S(=O)(=O)[O-])cc21"
unit_abbrev = "nm"
obs_value = 642

[[record]]
compound = "CC(C(=O)ON1C(=O)CCC1=O)c1ccc(C[N+]2=C(/C=C/C=C3\\Oc4ccccc4N3Cc3ccc(CC(=O)ON4C(=O)CCC4=O)cc3)C(C)(C)c3cc(S(=O)(=O)[O-])ccc32)cc1 (centres unmarked)"
unit_abbrev = "nm"
obs_value = 541

[[record]]
compound = "O=C(O)Cc1ccc(CN2/C(=C/C=C/c3oc4ccccc4[n+]3Cc3ccc(CC(=O)O)cc3)Oc3ccccc32)cc1.[Br-]"
unit_abbrev = "nm"
obs_value = 507


Request: Report Em for CC(C(=O)O)c1ccc(C[N+]2=C(/C=C/C=C3\Oc4ccccc4N3Cc3ccc(CC(=O)O)cc3)C(C)(C)c3cc(S(=O)(=O)[O-])ccc32)cc1 (centres unmarked) please.
Result: 541

Request: Next: CC1(C)C(/C=C/C=C/C=C2/N(Cc3ccc(CC(=O)O)cc3)c3ccccc3C2(C)C)=[N+](Cc2ccc(CC(=O)O)cc2)c2ccccc21.[Br-]
Result: 679

Request: And for Cc1ccc(CN2/C(=C/C=C/C=C/C3=[N+](Cc4ccc(C)cc4)c4ccccc4C3(C)C)C(C)(C)c3ccccc32)cc1.[Br-] ?
Result: 674

----------
This section presents compounds with their documented Ex Peak / excitation max values.
# Assay overview: Fluorescence excitation and emission spectrum of the dyes
# Assay type: physicochemical
# Condition parameters: solvent not given

Solved entries:
[[record]]
compound = "CC1(C)C(/C=C/C=C/C=C2/N(Cc3ccc(CC(=O)O)cc3)c3ccccc3C2(C)C)=[N+](Cc2ccc(CC(=O)O)cc2)c2ccccc21.[Br-]"
readout_type = "Ex Peak / excitation max"
obs_value = "609 nm"

[[record]]
compound = "CC(C(=O)O)c1ccc(C[N+]2=C(/C=C/C=C3\\Oc4ccccc4N3Cc3ccc(CC(=O)O)cc3)C(C)(C)c3cc(S(=O)(=O)[O-])ccc32)cc1 (centres unmarked)"
readout_type = "Ex Peak / excitation max"
obs_value = "510 nm"

[[record]]
compound = "O=C(O)Cc1ccc(CN2/C(=C/C=C/c3oc4ccccc4[n+]3Cc3ccc(CC(=O)O)cc3)Oc3ccccc32)cc1.[Br-]"
readout_type = "Ex Peak / excitation max"
obs_value = "489 nm"

[[record]]
compound = "CC(C(=O)ON1C(=O)CCC1=O)c1ccc(C[N+]2=C(/C=C/C=C3\\Oc4ccccc4N3Cc3ccc(CC(=O)ON4C(=O)CCC4=O)cc3)C(C)(C)c3cc(S(=O)(=O)[O-])ccc32)cc1 (centres unmarked)"
readout_type = "Ex Peak / excitation max"
obs_value = "510 nm"

[[record]]
compound = "Cc1ccc(CN2/C(=C/C=C/C=C/C3=[N+](Cc4ccc(C)cc4)c4ccccc4C3(C)C)C(C)(C)c3ccccc32)cc1.[Br-]"
readout_type = "Ex Peak / excitation max"
obs_value = "650 nm"


Request: Look at this compound and give its reported Ex Peak / excitation max. O=C(Cc1ccc(CN2/C(=C/C=C/c3oc4ccccc4[n+]3Cc3ccc(CC(=O)ON4C(=O)CCC4=O)cc3)Oc3ccccc32)cc1)ON1C(=O)CCC1=O.[Br-]
Result: 489 nm

Request: Same lookup for Cc1ccc(CN2/C(=C/C=C/C3=[N+](Cc4ccc(C)cc4)c4ccccc4C3(C)C)C(C)(C)c3ccccc32)cc1.[Br-] , please.
Result: 551 nm

Request: Entry CC1(C)C(/C=C/C=C/C=C2\Oc3ccccc3N2Cc2ccc(CC(=O)ON3C(=O)CCC3=O)cc2)=[N+](Cc2ccc(CC(=O)ON3C(=O)CCC3=O)cc2)c2ccc(S(=O)(=O)[O-])cc21 please
Result: 609 nm

Source of measurements: patent US20120088262A1
